These entries and their values trace back to PubChem BioAssay.

Each item that follows carries a reported composite z-score.
test target: Torsin-1A (Homo sapiens) (UniProt O14656)
Sequence (O14656 whole entry, looked up): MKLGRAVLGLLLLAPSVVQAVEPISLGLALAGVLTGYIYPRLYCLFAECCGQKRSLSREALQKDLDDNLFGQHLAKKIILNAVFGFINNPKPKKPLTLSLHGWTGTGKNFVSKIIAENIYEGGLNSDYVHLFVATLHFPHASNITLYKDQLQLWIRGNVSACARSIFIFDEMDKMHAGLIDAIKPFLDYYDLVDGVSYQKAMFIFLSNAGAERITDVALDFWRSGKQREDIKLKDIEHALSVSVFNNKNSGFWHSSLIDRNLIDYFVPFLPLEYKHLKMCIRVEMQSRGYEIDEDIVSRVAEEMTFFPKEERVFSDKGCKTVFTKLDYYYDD
procedure details: TOR1A wild-type binding on microarray – cell lysate, small-molecule microarray, lysate, 635/667 nm, primary screen (AID 1149)
cond: COS7 hTOR1A-WT lysate, 635 nm fluorescence, higher = more signal
recorded metric: composite z-score

INSERT INTO assay_data (compound, assay_value) VALUES
  ('CC1CC/C=C\[C@H]2OC34C=CCN(CCN5CCOCC5)C(=O)[C@H]3N(CCCO)C(=O)[C@@H]4C2C(=O)O1 (stereo partly drawn)', -0.0243),
  ('COc1ccc(C(=O)Nc2ccc3c(c2)[C@@]2(O[C@H](CCO)[C@@H]([Si](C)(C)c4ccc(OC)cc4)[C@@H]2C)C(=O)N3Cc2ccccc2)cc1', -0.193),
  ('Cc1ccc(S[C@]2(C(=O)NCCCN(C)C)CC(=O)N(C3Cc4ccccc4C3)[C@@H]2c2ccc(CO)cc2I)cc1', -1.5),
  ('CCOC(=O)C1=CCC(c2cc3ccccc3[nH]2)N(CCN2CC(C(=O)OCC)=CCC2c2cc3ccccc3[nH]2)C1 (stereo not drawn)', 0.0418),
  ('CN(C)CCCC[C@@H]1NC(=O)[C@@H]2C[C@H](C(=O)NCCCCCCNC(=O)CS)[C@H](c3ccc(O)cc3)N2C1=O', 0.71),
  ('O=C1C[C@@](C(=O)O)(c2ccc([N+](=O)[O-])cc2)[C@@H](c2ccc(CO)cc2)N1C1CCCCC1', 0.298),
  ('C[C@@H]1ON(c2ccccc2)[C@H](c2ccccc2)[C@H]1C(=O)O', 0.404),
  ('Cc1ccc(S[C@]2(C(=O)NC3CC3)CC(=O)N(C(C)C)[C@@H]2c2ccc(CO)cc2I)cc1', 0.778);
